System: ACHN renal
assay_name: NCI-60 one-dose screen, 48 h
applied_conditions: 10 µM unless noted
The panel holds about 83,000 compounds, 20% with a hit somewhere; the sample as a whole holds those more often. Calls of active or inactive are those of the source. The calls were made as follows: active = growth percent below 10; inactive = the rest.
Just give me one of these, please: active, inactive

Look over these answered cases.
compound | class_assignment
O=C(Nc1ccccc1Cl)c1ccc(NC2=C(Cl)C(=O)N(C3CCCCC3)C2=O)cc1 | inactive
CCc1nc(N)nc(N)c1C#CC(C)c1cc(-c2ccnc(C)c2)c2oc(C)nc2c1 (stereo unspecified) | active
N#Cc1c(-c2ccc(Cl)cc2)nc(N=Nc2c(O)[nH]c3ccc(Cl)cc23)nc1N1CCOCC1 | inactive
O=C(Oc1cccnc1)c1ccsc1Nc1ccnc(C(F)(F)F)c1 | inactive
COc1cc(C=Nc2oc(-c3ccccc3)c(-c3ccccc3)c2C#N)cc(CN2CCCCC2)c1O | inactive
COc1cc(-c2nn(C)nc2-c2cc3ccccc3s2)cc(OC)c1OC | inactive
CCN(CC)c1ccc(-c2cc(-c3cc(OC)c(OC)c(OC)c3)nc(N3CCOCC3)c2C#N)cc1 | inactive
CN(C)c1ccc(N=Nc2ccc(Br)cn2)c(O)c1 | active

### Prompt Hey, what did the test say about "CC(C)c1c(C(=O)c2ccccc2)c(-c2ccccc2)c(-c2ccc(F)cc2)n1CC[C@@H](O)C[C@@H](O)CC(=O)O" ?
### Response inactive

### Prompt Short answer needed: outcome of this test for "Oc1cccc(-c2nc(N3CCOCC3)c3c4c(sc3n2)CCCC4)c1" ?
### Response inactive

### Prompt Test call, this compound: "CC(=O)OC[C@H]1O[C@H](OC(C)=O)[C@H](NC(=O)/C=C/CCl)[C@@H](OC(C)=O)[C@@H]1OC(C)=O"
### Response inactive

### Prompt Per the assay record, what outcome was assigned to "Cc1[nH]c(-c2cc(N)ccc2Cl)c2c1C(=O)CCCC2" ?
### Response inactive

### Prompt What classification did "CCN=C1C=CC(=C(c2ccc(N)cc2)c2ccc(N(CC)CC)c(C)c2)C=C1" end up with in this test?
### Response active

### Prompt Called result for "O=C(N=Nc1c(O)[nH]c2ccccc12)c1cc(-c2ccccc2)on1"
### Response inactive

### Prompt Per the records of this test, what outcome belongs to O=C1OC(c2ccccc2)C(O)=C1c1ccccc1 (stereo unspecified) ?
### Response inactive

* * *

Tested on: CCRF-CEM leukemia
assay_name: NCI-60 one-dose screen, 48 h
applied_conditions: 10 µM unless noted
Compounds without any hit were thinned out: in the full panel of roughly 83,000, 20% have a hit. Activity calls are given as the source filed them. The calls were made as follows: active = growth percent below 10; inactive = the rest.
Answer with one of the outcomes given here: YES (active), NO (inactive)

compound_structure | class_assignment
CC/C=C\C[C@H]1C/C=C2/C(=O)C=C[C@H]2C/C=C\CCCC(=O)O1 | YES

Now look at this entry.
### Prompt Per the assay record, what outcome was assigned to "NC(=NCCCOc1ccc(Cl)cc1)Nc1ccc(Cl)cc1" ?
### Response YES

* * *

Test system: MOLT-4 leukemia
assay_name: NCI-60 one-dose screen, 48 h
applied_conditions: 10 µM unless noted
Compounds without any hit were thinned out: in the full panel of roughly 83,000, 20% have a hit. Calls of active or inactive are those of the source. How the source made its calls: active means growth percent below 10; inactive means the rest.
Please reply with one of these outcomes: active, inactive

// below: answered molecules
molecule | test_system | class_assignment
NS(=O)(=O)c1ccc(CN=C2NC(=O)S/C2=C\c2ccc(Br)cc2)cc1 | MOLT-4 leukemia | inactive
COc1ccc(CN2c3ccccc3Sc3ccccc32)c(C(F)(F)F)c1 | MOLT-4 leukemia | inactive
O=C(O)c1ccc(N=CC(=O)c2ccc(-c3ccccc3)cc2)cc1 | MOLT-4 leukemia | inactive
COc1cc2c(cc1O)CC[C@@H]1[C@@H]2CC[C@]2(C)[C@@H](NCCN(C)C)CC[C@@H]12 | MOLT-4 leukemia | active
CN1CCN(c2ccc3nc(-c4ccc(OCCCCN5CCN(CCCCN6C(=O)c7cccc8cccc(c78)C6=O)CC5)cc4)[nH]c3c2)CC1 | MOLT-4 leukemia | inactive

### Prompt Fill in: this test's call for "Cn1ccnc1C(=O)/C=C/c1ccc(CC(=O)Nc2ccccc2)cc1" is ___
### Response active

### Prompt Look up the recorded call for "O=C1c2cc3c(cc2-c2c1c1cc(F)c(F)cc1c(=O)n2CCCn1ccnc1)OCO3" in this test.
### Response active

### Prompt // param item: "CC1=C[C@H]2c3c(c(O)c(O)c4oc5c(C)cccc5c(=O)c34)[C@H](c3cc(O)c(O)c4oc5c(C)cccc5c(=O)c34)[C@H]2C(C)(C)C1" ; yields the recorded call
### Response active

### Prompt Record request — test call for "O=C1C=C(O)C(=O)C(CC2=C(O)C(=O)C=C(O)C2=O)=C1O"
### Response inactive

### Prompt I would be grateful if you could indicate the recorded call for "CCCOc1ccc2nc(NC(=O)OC)[nH]c2c1" .
### Response inactive

### Prompt What was the test verdict on "C#CCOc1ccc2ncnc(N3CCC(NC(=O)CCl)CC3)c2c1" ?
### Response inactive

### Prompt Any idea what this test logged for "COc1ccc(S(=O)(=O)N2CCCCCC2)cc1NC(=O)c1[nH]c(C)c2c1CCCCC2=O" ?
### Response inactive

### Prompt Entry CSc1ccc(SC2c3ccc(C)cc3Oc3nc(N)c(C#N)c(N)c32)cc1 (stereo not drawn) : call = ?
### Response active

### Prompt What call does the record list for "COc1cc2c(cc1-c1c(C)noc1C)ncc1nc(C3CCOCC3)n([C@H](C)COC(F)F)c12" ?
### Response inactive

The measured values listed here are drawn from PubChem BioAssay (NCI).
